System: K562
Protocol Text: Antiproliferative activity against human K562 cells after 72 hrs by MTS assay
Format: functional, cell-based
Assay Conditions: K562, 72 h
Experimental Readout: IC50 (µM)

{"Structure Smiles String": "N=C(NCCCNCCCCCCCNCCCNC(=N)NC(=N)NCCC(c1ccccc1)c1ccccc1)NC(=N)NCCC(c1ccccc1)c1ccccc1", "Experimental Readout": "IC50", "Number": 4.3}

###

Test system: Calu-6
Protocol Text: Antiproliferative activity against human Calu6 cells after 72 hrs by MTS assay
Format: functional, cell-based
Assay Conditions: Calu-6, 72 h
pIC50: −log10 of the molar value.
Experimental Readout: pIC50

{"Structure Smiles String": "N=C(NCCCNCCCCCCCNCCCNC(=N)NC(=N)NCCC(c1ccccc1)c1ccccc1)NC(=N)NCCC(c1ccccc1)c1ccccc1", "Test System": "Calu-6", "Result": "5.20 to 5.80"}
